// data source = patent US20240189287A1

# efflux ratio at 2.5 h, 2 μM listing for each entry below
system: P-gp (MDR1, ABCB1); assay: MDR1-MDCK II cell permeation assay (bi-directional permeability, P-gp efflux); assay type: in vitro ADME; conditions: dog, MDCK-MDR1, pH 7.4, with GF120918, 10 μM; efflux ratio in the presence of P-gp inhibitor GF120918; read-out: MDR1 B:A/A:B (+P-gp inhibitor)
I only need the number, thanks.

These solved cases illustrate the format of a correct answer.
- CS(=O)(=O)N1CCC(C(=O)NC2CCCOc3c2nn(-c2ccccc2Cl)c3-c2ccc(Cl)cc2)CC1 (stereo not drawn): 0.63
- O=C(NC1CCCOc2c1nn(-c1ccccc1Cl)c2-c1ccc(Cl)cc1)C1CCN(C(=O)c2cccnc2)CC1 (stereo not drawn): 0.64
- O=C(NC1CCCOc2c1nn(-c1ccccc1Cl)c2-c1ccc(Cl)cc1)c1cccnc1 (stereo not drawn): 0.63
- CCOC(=O)N1CCC(C(=O)NC2CCCOc3c2nn(-c2ccccc2Cl)c3-c2ccc(Cl)cc2)CC1 (stereo not drawn): 0.61

// below: efflux ratio at 2.5 h, 2 μM requested for another compound
### Prompt Any idea what its efflux ratio at 2.5 h, 2 μM is? The compound is O=C(NC1CCCOc2c1nn(-c1ccccc1Cl)c2-c1ccc(Cl)cc1)c1cnccn1 (stereo not drawn)
### Response 0.55
